target: Porcine ventricle myofibrils (ventricular myosin ATPase) (Sus scrofa, UniProt P79293)
Construct: Myofibrils from porcine cardiac muscle was isolated from the left ventricle of Yucatan minipigs; tissue Exemplar Genetics; host or cells: left ventricle of Yucatan minipigs, myofibrils prepared in house
Sequence (P79293 whole entry): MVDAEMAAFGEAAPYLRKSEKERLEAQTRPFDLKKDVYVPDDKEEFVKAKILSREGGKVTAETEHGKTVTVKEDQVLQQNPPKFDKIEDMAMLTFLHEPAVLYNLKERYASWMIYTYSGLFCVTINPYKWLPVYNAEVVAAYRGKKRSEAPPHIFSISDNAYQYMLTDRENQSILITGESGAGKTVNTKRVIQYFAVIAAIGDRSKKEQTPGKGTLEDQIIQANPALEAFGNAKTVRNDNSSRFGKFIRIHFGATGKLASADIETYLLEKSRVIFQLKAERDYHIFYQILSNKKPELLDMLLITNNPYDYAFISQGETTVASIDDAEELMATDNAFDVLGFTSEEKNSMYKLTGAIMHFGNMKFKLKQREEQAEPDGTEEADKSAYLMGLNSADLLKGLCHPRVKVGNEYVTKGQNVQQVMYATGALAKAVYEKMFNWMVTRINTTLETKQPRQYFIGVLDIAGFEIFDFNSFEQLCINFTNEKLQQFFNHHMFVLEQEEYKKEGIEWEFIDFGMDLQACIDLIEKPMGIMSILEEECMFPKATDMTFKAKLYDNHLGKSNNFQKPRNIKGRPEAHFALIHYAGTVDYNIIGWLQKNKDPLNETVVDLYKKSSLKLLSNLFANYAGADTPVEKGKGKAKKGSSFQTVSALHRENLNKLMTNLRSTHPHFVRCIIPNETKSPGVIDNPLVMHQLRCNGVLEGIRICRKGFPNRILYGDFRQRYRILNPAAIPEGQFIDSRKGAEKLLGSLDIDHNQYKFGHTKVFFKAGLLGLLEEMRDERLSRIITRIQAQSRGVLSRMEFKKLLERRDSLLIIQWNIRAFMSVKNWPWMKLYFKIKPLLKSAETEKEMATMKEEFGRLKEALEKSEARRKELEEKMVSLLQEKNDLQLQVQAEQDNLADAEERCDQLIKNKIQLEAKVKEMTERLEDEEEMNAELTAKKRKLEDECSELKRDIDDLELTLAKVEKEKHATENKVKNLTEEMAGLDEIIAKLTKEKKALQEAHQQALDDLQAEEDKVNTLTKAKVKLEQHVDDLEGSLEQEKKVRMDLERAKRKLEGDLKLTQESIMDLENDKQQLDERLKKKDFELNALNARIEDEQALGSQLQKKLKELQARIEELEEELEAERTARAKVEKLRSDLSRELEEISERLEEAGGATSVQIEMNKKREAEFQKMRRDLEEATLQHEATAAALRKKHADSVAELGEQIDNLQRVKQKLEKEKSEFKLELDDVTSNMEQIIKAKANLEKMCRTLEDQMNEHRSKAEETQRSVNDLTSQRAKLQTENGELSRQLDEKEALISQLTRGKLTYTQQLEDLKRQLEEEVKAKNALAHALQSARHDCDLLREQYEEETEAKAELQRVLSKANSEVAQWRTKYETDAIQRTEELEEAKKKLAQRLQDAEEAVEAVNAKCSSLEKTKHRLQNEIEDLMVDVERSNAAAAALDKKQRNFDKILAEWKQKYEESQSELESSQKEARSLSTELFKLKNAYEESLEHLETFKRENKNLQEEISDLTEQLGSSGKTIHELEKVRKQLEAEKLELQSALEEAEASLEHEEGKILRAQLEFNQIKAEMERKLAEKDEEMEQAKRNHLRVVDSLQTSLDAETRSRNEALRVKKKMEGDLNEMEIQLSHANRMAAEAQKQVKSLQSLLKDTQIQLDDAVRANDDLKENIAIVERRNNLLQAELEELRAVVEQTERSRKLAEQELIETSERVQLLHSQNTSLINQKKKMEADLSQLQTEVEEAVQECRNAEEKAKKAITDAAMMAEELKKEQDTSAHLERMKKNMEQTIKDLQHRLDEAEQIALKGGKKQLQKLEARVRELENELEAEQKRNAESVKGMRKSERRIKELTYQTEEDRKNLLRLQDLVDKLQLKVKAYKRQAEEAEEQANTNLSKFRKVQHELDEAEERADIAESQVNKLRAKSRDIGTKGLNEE
measurement-description: Myofibril ATPase assay, porcine ventricle myofibrils
Type: biochemical, porcine (Yucatan minipigs)
condition-info: Y75 value (no ‡ mark); porcine ventricle myofibrils
Label class 1 when Ventricular EC25 is strictly below 400 nM; at or above that, label class 0.

molecule: Cc1c([C@@H](C)C(=O)N[C@@H](C)c2ncc(C#N)cc2F)c(=O)[nH]c2ccc(F)c(F)c12 (relative stereo) [compound 2602]
group: class 1

molecule: Cc1c(C2(C(=O)N[C@@H](C)c3nccc(C#N)n3)CC2)c(=O)[nH]c2ccc(F)cc12 (single isomer, unassigned) [compound 4842]
group: class 0

molecule: Cc1c(CC(=O)N[C@@H](C)c2ncc(C#N)cc2F)c(=O)[nH]c2ccc(F)cc12 [compound 1107]
group: class 1

molecule: C[C@@H](NC(=O)C1(c2cc3c(F)c(F)ccc3[nH]c2=O)CC1)c1ncc(C#N)cc1F (single isomer, unassigned) [compound 2592]
group: class 0

molecule: C[C@H](NC(=O)C1(c2cc3c(F)c(F)ccc3[nH]c2=O)CC1)c1ncc(C#N)cc1F (single isomer, unassigned) [compound 2593]
group: class 0

Query block: Take the molecule Cc1c(CC(=O)N[C@@H](C)c2ncc(C#N)cn2)c(=O)[nH]c2cccc(F)c12 (single isomer, unassigned) [compound 2042] and say whether its Ventricular EC25 is less than 400 nM.
Result block: class 0

Query block: Take the molecule Cc1c(CC(=O)N[C@H](C)c2cnc(C#N)cn2)c(=O)[nH]c2ccc(F)cc12 [compound 1108] and say whether its Ventricular EC25 is less than 400 nM.
Result block: class 0

Query block: Take the molecule Cc1c(CC(=O)N[C@@H](C)c2ncc(C#N)cc2F)c(=O)[nH]c2ccc(F)c(Cl)c12 (single isomer, unassigned) [compound 2052] and say whether its Ventricular EC25 is less than 400 nM.
Result block: class 1

Query block: Take the molecule Cc1c(CC(=O)N[C@H](C)c2ccc(C#N)cn2)c(=O)[nH]c2cccc(F)c12 [compound 53] and say whether its Ventricular EC25 is less than 400 nM.
Result block: class 0

Query block: Take the molecule Cc1nc(C#N)ccc1[C@@H](C)NC(=O)Cc1c(C)c2cc(F)ccc2[nH]c1=O [compound 1050] and say whether its Ventricular EC25 is less than 400 nM.
Result block: class 0

Query block: Take the molecule Cc1c(C(F)(F)C(=O)N[C@H](C)c2ncc(C#N)cn2)c(=O)[nH]c2ccc(F)cc12 (single isomer, unassigned) [compound 2594] and say whether its Ventricular EC25 is less than 400 nM.
Result block: class 1

Query block: Take the molecule Cc1c(CC(=O)N[C@@H](C)c2ccc(C#N)cn2)c(=O)[nH]c2ccc(F)c(C#N)c12 [compound 50] and say whether its Ventricular EC25 is less than 400 nM.
Result block: class 1

Query block: Take the molecule Cc1c(CC(=O)N[C@@H](C)c2ccc(C#N)cn2)c(=O)[nH]c2ccc(F)c(C3CC3)c12 [compound 24] and say whether its Ventricular EC25 is less than 400 nM.
Result block: class 1

Query block: Take the molecule C[C@H](NC(=O)C(F)(F)c1cc2cc(F)ccc2[nH]c1=O)c1nccc(C#N)n1 (single isomer, unassigned) [compound 2560] and say whether its Ventricular EC25 is less than 400 nM.
Result block: class 0

Query block: Take the molecule Cc1cc([C@H](C)NC(=O)Cc2c(C)c3c(C)c(F)ccc3[nH]c2=O)ncc1F (single isomer, unassigned) [compound 2077] and say whether its Ventricular EC25 is less than 400 nM.
Result block: class 0

Query block: Take the molecule Cc1c(F)ccc2[nH]c(=O)c(C(F)(F)C(=O)N[C@H](C)c3ncc(C#N)cc3F)c(C)c12 (single isomer, unassigned) [compound 4811] and say whether its Ventricular EC25 is less than 400 nM.
Result block: class 0

Query block: Take the molecule Cc1cc(F)cnc1[C@H](C)NC(=O)C(F)(F)c1c(C)c2cc(F)ccc2[nH]c1=O (single isomer, unassigned) [compound 4808] and say whether its Ventricular EC25 is less than 400 nM.
Result block: class 0

Query block: Take the molecule C[C@H](NC(=O)Cc1cc2c(F)cccc2[nH]c1=O)c1ccc(C#N)cn1 [compound 48] and say whether its Ventricular EC25 is less than 400 nM.
Result block: class 0

Query block: Take the molecule C[C@H](NC(=O)[C@@H](C)c1c(C(F)(F)F)c2c(F)cccc2[nH]c1=O)c1ccc(F)cc1F (single isomer, unassigned) [compound 97] and say whether its Ventricular EC25 is less than 400 nM.
Result block: class 0

Query block: Take the molecule C[C@H](NC(=O)[C@H](C)c1cc2c(Cl)c(O)ccc2[nH]c1=O)c1ccc(F)cc1F (single isomer, unassigned) [compound 86] and say whether its Ventricular EC25 is less than 400 nM.
Result block: class 0

Query block: Take the molecule C[C@@H](NC(=O)C(F)(F)c1cc2c(C#N)c(F)ccc2[nH]c1=O)c1ncc(C#N)cc1F (single isomer, unassigned) [Compound 2529] and say whether its Ventricular EC25 is less than 400 nM.
Result block: class 1

Query block: Take the molecule Cc1nc(C#N)cnc1[C@H](C)NC(=O)Cc1c(C)c2c(F)c(F)ccc2[nH]c1=O [compound 1140] and say whether its Ventricular EC25 is less than 400 nM.
Result block: class 1
